- tgt: T1, pig TF-His (pig (Sus scrofa))
- T1 construct: also called pig TF ECD-His; pTF
- T1 chain: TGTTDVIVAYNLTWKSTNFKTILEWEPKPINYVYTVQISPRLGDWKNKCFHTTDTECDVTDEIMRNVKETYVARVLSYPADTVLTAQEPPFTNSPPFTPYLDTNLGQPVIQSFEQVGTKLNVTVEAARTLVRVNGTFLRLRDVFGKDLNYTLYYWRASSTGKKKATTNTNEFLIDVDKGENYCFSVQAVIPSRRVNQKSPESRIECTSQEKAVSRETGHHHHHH
- test-name: SPR (Biacore), antibody captured by anti-human IgG on CM5 chip, pig TF-His in solution, 1:1 model
parameter-measured: pKd
Answer as the number alone; pKd is minus log10 of concentration in mol/L.

response.value for 25G1 (antibody, human IgG1, kappa, V domains shown, Human IgG1; also called antibody 25G1) VH: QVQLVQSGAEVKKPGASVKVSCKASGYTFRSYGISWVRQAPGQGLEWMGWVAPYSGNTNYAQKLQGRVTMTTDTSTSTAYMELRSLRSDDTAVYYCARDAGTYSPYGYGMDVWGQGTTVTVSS VL: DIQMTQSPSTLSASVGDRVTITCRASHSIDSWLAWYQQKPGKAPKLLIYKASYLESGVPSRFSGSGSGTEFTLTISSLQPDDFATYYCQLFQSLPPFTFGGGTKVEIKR (field: pKd) = 8.59
